- Target or test system: Tubulin (Homo sapiens) (UniProt P68371+Q9H4B7+P0DPH7+P68366+Q13509+Q71U36+P04350+Q3ZCM7+P07437+P68363+Q9BQE3+Q6PEY2+Q13885+Q9BVA1+Q9BUF5)
- Experiment: Stabilization of microtubules in human QBI293 cells assessed as fold change in alpha tubulin levels at 10 uM after 4 hrs by ELISA relative to DMSO
- Assay type: cell-based
// values below are reported fold change (FC)
Please state the value as a number alone, without comment.

Example entries and their recorded answers appear below.
> print(dat)
                                   compound  value.reported
1  CC(CF)Nc1c(-c2c(F)cc(F)cc2F)c(Cl)nc2ncnn12 (stereo not given)            1.09
2  C[C@H](Nc1c(-c2ccccc2F)c(Cl)nc2ncnn12)C(F)(F)F            1.05
3  C[C@H](Nc1c(-c2cc(F)ccc2F)c(Cl)nc2ncnn12)C(F)(F)F             0.9

Please report the recorded fold change (FC) for `Fc1cc(F)c(-c2c(Cl)nc3ncnn3c2NC2CCCC2)c(F)c1` .
0.98

Quick check: fold change (FC) of `C[C@@H](Nc1c(-c2ccc(C#N)cc2F)c(Cl)nc2ncnn12)C(C)(C)C` ?
0.93

Param item = `CC(C)[C@@H](C)Nc1c(-c2c(F)cccc2F)c(Cl)nc2ncnn12` ; retrieve measured fold change (FC).
0.96

Fill in: fold change (FC) of `CO[C@H]1C[C@H]2CC[C@@H](C1)N2c1c(-c2c(F)cc(C#N)cc2F)c(Cl)nc2ncnn12` is ___
1

For the compound shown here, `Fc1cc(F)c(-c2c(Cl)nc3ncnn3c2NCc2ccccc2)c(F)c1` , give the reported fold change (FC).
1.06

Find the recorded fold change (FC) belonging to `Nc1c(-c2c(F)cc(F)cc2F)c(Cl)nc2ncnn12` and report it.
1.05

Entry under review: `C[C@H](Nc1c(-c2ccccc2)c(Cl)nc2ncnn12)C(F)(F)F` . Reported fold change (FC)?
1.03

These entries and their values trace back to ChEMBL document CHEMBL4732138.
